- measurement_notes: chemical genetic growth profiling, strain panel (AID 1159580);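 note: tested at 20 µM; growth read once vehicle control cultures reached saturation at 30 °C; 1 = growth at the plate median or of vehicle wells; lower values mean less growth of the strain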
- experimental_conditions: S. cerevisiae deletion strains, growth OD, locus YLR330W, strain CHS5
The whole screen tested about 5,500 compounds, of which about 2,000 (36%) were called active. Not shown: some 18% with an inconclusive outcome. Cut-off read from the data, not from the text of the source: active = normalized growth mostly below about 0.91 (no sharp cut-off); inconclusive = no clear call, values can overlap the other calls; inactive = mostly above about 0.92. This is one part of the list.
# valid calls are 1 (yes) = active, 0 (no) = inactive; nothing else

Dear colleague, could you share the recorded outcome for C[C@]12CCC(=O)C=C1CCC1C2CC[C@@]2(C)C1CC[C@@H]2O (stereo partly drawn) when you have a moment?
0 (no)

Dear colleague, could you share the recorded outcome for CC(NCCc1ccc(O)cc1)C(O)c1ccc(O)cc1 (stereo not drawn) when you have a moment?
0 (no)

Dear colleague, could you share the recorded outcome for N=c1ccn2c(n1)O[C@@H]1C2O[C@H](CO)[C@H]1O (stereo partly drawn) when you have a moment?
0 (no)

Dear colleague, could you share the recorded outcome for CN1CCCN=C1COC(=O)C(O)(c1ccccc1)C1CCCCC1 (stereo not drawn) when you have a moment?
0 (no)

Dear colleague, could you share the recorded outcome for COc1cc(NC(C)CCCN)c2ncccc2c1 (stereo not drawn) when you have a moment?
0 (no)

Continuing:
Dear colleague, could you share the recorded outcome for COc1ccc2c(C)cc(=O)oc2c1 when you have a moment?
0 (no)

Dear colleague, could you share the recorded outcome for COc1ccc2cc([C@H](C)CO)ccc2c1 when you have a moment?
0 (no)

Dear colleague, could you share the recorded outcome for CCN(CC)CCNC(=O)c1cc(Br)c(N)cc1OC when you have a moment?
0 (no)

Dear colleague, could you share the recorded outcome for CC(=O)c1c(O)c(C)c(O)c2c1oc1c(C(C)=O)c(O)c(C)c(O)c12 when you have a moment?
0 (no)

Dear colleague, could you share the recorded outcome for CNC(C)[C@H](O)c1ccccc1 (stereo partly drawn) when you have a moment?
0 (no)

Dear colleague, could you share the recorded outcome for CCCCCCCCNC(C)C(O)c1ccc(SC(C)C)cc1 (stereo not drawn) when you have a moment?
1 (yes)

Dear colleague, could you share the recorded outcome for COc1ccc2cc([C@H](C)C(=O)O)ccc2c1 when you have a moment?
0 (no)

Dear colleague, could you share the recorded outcome for CCOC(=O)C(Cc1ccc(O)cc1)NC(C)=O (stereo not drawn) when you have a moment?
0 (no)

Dear colleague, could you share the recorded outcome for CC(C)OC(=O)C(C)(C)Oc1ccc(C(=O)c2ccc(Cl)cc2)cc1 when you have a moment?
0 (no)

Dear colleague, could you share the recorded outcome for COc1ccc(OC)c(C(O)C(C)N)c1 (stereo not drawn) when you have a moment?
0 (no)

Dear colleague, could you share the recorded outcome for CCOC(=O)C(C)(C)Oc1ccc(Cl)cc1 when you have a moment?
0 (no)

Dear colleague, could you share the recorded outcome for CCOC(=O)C(=O)C1(C(=O)OCC)Oc2cc(OC)cc(OC)c2C(=O)C1c1ccccc1 (stereo not drawn) when you have a moment?
1 (yes)

Dear colleague, could you share the recorded outcome for COc1cc(NS(=O)(=O)c2ccc(N)cc2)nc(OC)n1 when you have a moment?
0 (no)

Dear colleague, could you share the recorded outcome for COc1ccc2c(c1OC)C(=O)O[C@@H]2[C@H]1c2cc3c(cc2CCN1C)OCO3 when you have a moment?
0 (no)

Dear colleague, could you share the recorded outcome for CC(=O)C1CCC2C3CC(=O)C4=CC(=O)CCC4(C)C3CCC12C (stereo not drawn) when you have a moment?
0 (no)

Dear colleague, could you share the recorded outcome for COP(=O)(OC)OC=C(Cl)Cl when you have a moment?
0 (no)

Dear colleague, could you share the recorded outcome for Cc1c(O)c(C(=O)CC(C)C)c2oc3c(C(=O)CC(C)C)c(O)c(C)c(O)c3c2c1O when you have a moment?
0 (no)

Dear colleague, could you share the recorded outcome for CC1=C(C(C)O)C2=NC1C=c1[nH]c(c(C)c1C(C)O)=Cc1[nH]c(c(CCC(=O)O)c1C)C=c1[nH]c(c(C)c1CCC(=O)O)=C2 (stereo not drawn) when you have a moment?
0 (no)

Dear colleague, could you share the recorded outcome for CC1=C(/C=C/C(C)=C/C=C/C(C)=C/C=C/C=C(C)/C=C/C=C(C)/C=C/C23OC2(C)CC(O)CC3(C)C)C(C)(C)CC(O)C1 (stereo not drawn) when you have a moment?
0 (no)

Dear colleague, could you share the recorded outcome for CNCCc1ccccn1 when you have a moment?
0 (no)

Dear colleague, could you share the recorded outcome for CCCCCCCCCCCCCCCC(=O)OC/C=C(C)/C=C/C=C(C)/C=C/C1=C(C)CCCC1(C)C when you have a moment?
0 (no)

Dear colleague, could you share the recorded outcome for COc1cc2c(cc1OC)[C@@H]1C(=O)c3ccc(O)c(CC=C(C)C)c3O[C@@H]1CO2 when you have a moment?
0 (no)
